- Test system: Colletotrichum acutatum s.s. M146-2
- measurement-description: MIC, micro-spectrophotometric growth assay (phytopathogens)
- Assay type: cell-based, Colletotrichum acutatum sensu stricto
- measurement-setup: S.S.M1462; Colletotrichum acutatum s.s. M146-2; PDB, 24 °C, dark; imazalil at label dose; read-out: Minimum inhibitory concentration (MIC)
I'd appreciate it if you could supply MIC values for the items below.
Numbers only, in µM.

Reference set, count: 3
molecule | MIC, µM
O=C1OC[C@H]2OC(O)[C@H](O)[C@@H](O)[C@@H]2OC(=O)c2cc(O)c(O)c(O)c2-c2c(O)c(O)c3oc(=O)c4c(c(O)c(O)c5oc(=O)c2c3c54)-c2c1cc(O)c(O)c2O (mixture of isomers) | 256
O=c1oc2c(O)c(O)cc3c(=O)oc4c(O)c(O)cc1c4c23 | 165
C=CCOC(Cn1ccnc1)c1ccc(Cl)cc1Cl (stereo not shown) [Imazalil, imazalil, reference compound] | 0.3

input: Under Colletotrichum acutatum s.s. M146-2: MIC value of O=C(O)c1cc(O)c(O)c(O)c1 ?
output: 588

---

Assignment: determine reported MIC for the given compounds.
- Test system: Aspergillus brasiliensis ATCC 16404
- measurement-description: MIC, broth microdilution (human pathogens)
- Assay type: cell-based
- measurement-setup: ATCC16404; Aspergillus brasiliensis ATCC 16404; SDB, 30 °C, 48 h; read-out: Minimum inhibitory concentration (MIC)
One number for each entry, in µM.

// solved cases for MIC follow
compound | unit-spec | observed
O=C1OC[C@H]2OC(O)[C@H](O)[C@@H](O)[C@@H]2OC(=O)c2cc(O)c(O)c(O)c2-c2c(O)c(O)c3oc(=O)c4c(c(O)c(O)c5oc(=O)c2c3c54)-c2c1cc(O)c(O)c2O (mixture of isomers) | µM | 1.9
O=c1oc2c(O)c(O)cc3c(=O)oc4c(O)c(O)cc1c4c23 | µM | 662
C[C@@H]1[C@H](O)[C@@H](C)/C=C/C=C/C=C/C=C/C=C/C=C/C=C/[C@H](O[C@@H]2O[C@H](C)[C@@H](O)[C@H](N)[C@@H]2O)C[C@@H]2O[C@](O)(C[C@@H](O)C[C@@H](O)[C@H](O)CC[C@@H](O)C[C@@H](O)CC(=O)O[C@H]1C)C[C@H](O)[C@H]2C(=O)O [Amphotericin B, amphotericin B, reference compound] | µM | 0.1

For every record below, what is its MIC?
1. OC(Cn1cncn1)(Cn1cncn1)c1ccc(F)cc1F [Fluconazole, fluconazole, reference compound]
2. O=C(O)c1cc(O)c(O)c(O)c1

output:
4.9
8.8

---

Assignment: determine reported MIC for the given molecules.
- Tested on: Saccharomyces cerevisiae 42
- measurement-description: MIC, broth microdilution (human pathogens)
- Assay type: cell-based
- measurement-setup: Saccharomyces cerevisiae 42; SDB, 30 °C, 48 h; read-out: Minimum inhibitory concentration (MIC)
Give bare numbers, in µM.

molecule | observed
O=c1oc2c(O)c(O)cc3c(=O)oc4c(O)c(O)cc1c4c23 [Ellagic Acid, ellagic acid] | 662
O=C1OC[C@H]2OC(O)[C@H](O)[C@@H](O)[C@@H]2OC(=O)c2cc(O)c(O)c(O)c2-c2c(O)c(O)c3oc(=O)c4c(c(O)c(O)c5oc(=O)c2c3c54)-c2c1cc(O)c(O)c2O (mixture of isomers) [Punicalin, punicalin] | 3.8

Please state MIC for every molecule in the list that follows.
1. OC(Cn1cncn1)(Cn1cncn1)c1ccc(F)cc1F [Fluconazole, fluconazole, reference compound]
2. C[C@@H]1[C@H](O)[C@@H](C)/C=C/C=C/C=C/C=C/C=C/C=C/C=C/[C@H](O[C@@H]2O[C@H](C)[C@@H](O)[C@H](N)[C@@H]2O)C[C@@H]2O[C@](O)(C[C@@H](O)C[C@@H](O)[C@H](O)CC[C@@H](O)C[C@@H](O)CC(=O)O[C@H]1C)C[C@H](O)[C@H]2C(=O)O [Amphotericin B, amphotericin B, reference compound]
3. O=C(O)c1cc(O)c(O)c(O)c1 [Gallic Acid, gallic acid]

output:
1. 4.9
2. 1.1
3. 588
